CC50 at 10 days overview
- protocol: Cytotoxicity assay (CCK-8) in HepAD38 cells
- Format: cell-based
- condition.parameters: human, CCK-8
readout.name: CC50 at 10 days

>>> readout_value("CC(C)NS(=O)(=O)c1cc2c(c(C(=O)Nc3ccc(F)c(Cl)c3)c1)OCCO2 [Compound 5k]")
"> 10 µM"
>>> readout_value("O=C(Nc1ccc(F)c(Cl)c1)c1cc(S(=O)(=O)NC2CCCCC2)cc2c1OCCO2 [Compound 5c]")
"> 10 µM"
>>> readout_value("O=C(Nc1ccc(F)c(Cl)c1)c1cc(S(=O)(=O)NC2CCCC2)cc2c1OCCO2 [Compound 5b]")
"> 10 µM"

###

- protocol: Cytotoxicity assay (CCK-8) in HepAD38 cells
- Format: cell-based
- condition.parameters: human, CCK-8, 10 days
readout.name: CC50 at 10 days

>>> readout_value("C=C1[C@H](CO)[C@@H](O)C[C@@H]1n1cnc2c(=O)[nH]c(N)nc21 [ETV, entecavir, reference compound]")
"> 10 µM"

###

- Test system: HBV DNA
- protocol: HBV DNA activity inhibition assay (quantitative PCR) in HepAD38 cells
- Type: cell-based, hepatitis B virus (HBV)
- condition.parameters: Hepatitis B virus, 240 h; supernatant HBV DNA, HepAD38 cells, quantitative PCR, 10 days; read-out: EC50
pEC50: −log10 of the molar value.
Let's look at some compounds and their measured pEC50.
readout.name: pEC50

>>> readout_value("O=C(Nc1ccc(F)c(Cl)c1)c1cc(S(=O)(=O)NC2CCCC2)cc2c1OCCO2")
8.60
>>> readout_value("CC(C)NS(=O)(=O)c1cc2c(c(C(=O)Nc3ccc(F)c(Cl)c3)c1)OCCO2")
9.02
>>> readout_value("O=C(Nc1ccc(F)c(Cl)c1)c1cc(S(=O)(=O)NC2CCCCC2)cc2c1OCCO2")
7.83

###

# key: entry, value: CC50
- System: HepAD38 cells
- protocol: Cytotoxicity assay (CCK-8) in HepAD38 cells
- Type: cell-based
- condition.parameters: CCK-8, 10 days
- Method: HBV stably transfected hepatocellular carcinoma cell line, HepAD38, was able to secrete HBV viral particles (containing HBsAg, HBeAg and DNA) when the cells were cultured. […]
readout.name: CC50

>>> readout_value("CC(C)NS(=O)(=O)c1cc2c(c(C(=O)Nc3ccc(F)c(Cl)c3)c1)OCCO2")
"> 10 µM"
>>> readout_value("O=C(Nc1ccc(F)c(Cl)c1)c1cc(S(=O)(=O)NC2CCCC2)cc2c1OCCO2")
"> 10 µM"
>>> readout_value("O=C(Nc1ccc(F)c(Cl)c1)c1cc(S(=O)(=O)NC2CCCCC2)cc2c1OCCO2")
"> 10 µM"
